Values were extracted from PubChem BioAssay AID248.

System: L1210 leukemia ip in BDF1 mice, survival T/C
assay_details: NCI In Vivo Anticancer Drug Screen. Data for tumor model L1210 Leukemia (intraperitoneal) in B6D2F1 (BDF1) mice
condition_label: endpoint: mean survival time; dose: 300.0 mg/kg/injection; schedule: Q04DX003 (ip); vehicle: saline
Inconclusive results and toxic doses are left out. No stated cut-off is given here; in the data, active means T/C of 150% or more; inactive means T/C below 125%.
Lab note: assign the record to one of T (active), F (inactive)

Reference set (3 entries):
# compound, class_label
data = [
    ("CCCC(C)CC1CCCCC1=O (centres undefined)", "F"),
    ("Cc1cc(=S)[nH]c2ccccc12", "F"),
    ("CCN(CC)CCNc1ccc(CO)c2sc3ccccc3c(=O)c12", "T"),
]

Here is the next item to consider.
Outcome logged for O=C(Nc1cc([N+](=O)[O-])ccc1S(=O)(=O)c1ccc([N+](=O)[O-])cc1NC(=O)c1ccccc1)c1ccccc1 in this assay:
F

* * *

Tested on: L1210 leukemia ip in BDF1 mice, survival T/C
assay_details: NCI In Vivo Anticancer Drug Screen. Data for tumor model L1210 Leukemia (intraperitoneal) in B6D2F1 (BDF1) mice
condition_label: endpoint: mean survival time; dose: 50.0 mg/kg/injection; schedule: Q01DX009 (ip); vehicle: saline with Tween-80; higher = longer survival
Toxic doses and inconclusive results are not listed.
observation_type: T/C

# compound, T/C
records = [
    ("O=C(OC1CCCC1c1ccccc1)c1cccc([N+](=O)[O-])c1 (stereo unspecified)", "90 % of control"),
]

Consider the following items and state reported T/C for each.
1. NC(=O)NC(C(=O)O)(c1ccccc1)C1CCC1 (stereo unspecified)
2. COc1ccc(/C=C(/C)[N+](=O)[O-])cc1OC
3. CN(C)C(=O)c1cccc(NCc2ccc3nc(N)nc(N)c3c2)c1
4. CCCC(CN(C)C)C(=O)c1ccccc1 (stereo unspecified)
5. Cn1c(=O)cn[nH]c1=O
6. Cc1cccc(NC(=O)C2CCC(C)(C(=O)O)C2(C)C)c1 (stereo unspecified)
7. Cc1ccc(-n2c(=S)[nH]c3ccccc3c2=O)cc1
8. O=C1C2CCC(C2)C1C(O)(C(F)(F)F)C(F)(F)F (stereo unspecified)

1: 103 % of control; 2: 91 % of control; 3: 93 % of control; 4: 89 % of control; 5: 100 % of control; 6: 101 % of control; 7: 90 % of control; 8: 100 % of control

Consider the following items and state reported T/C for each.
1. C/C(Cc1cc(C)[nH]c(=S)n1)=N\NC(N)=O
2. Cn1ncc2c(NCc3ccccc3Cl)ncnc21

92 % of control
108 % of control

* * *

System: L1210 leukemia ip in BDF1 mice, survival T/C
assay_details: NCI In Vivo Anticancer Drug Screen. Data for tumor model L1210 Leukemia (intraperitoneal) in B6D2F1 (BDF1) mice
condition_label: endpoint: mean survival time; dose: 400.0 mg/kg/injection; schedule: Q01DX009 (ip); vehicle: saline with Tween-80; higher = longer survival
Toxic doses and inconclusive results are not listed.
observation_type: T/C

# compound, T/C
data = [
    ("CCCCCCCCCCCCCC(=O)CCC", "104 % of control"),
    ("COc1ccc(OC)c(NC(=O)Nc2cc(OC)ccc2OC)c1", "94 % of control"),
    ("O=[N+]([O-])c1ccccc1O", "100 % of control"),
    ("Cc1cc(=O)oc2cc(OC(=O)Nc3ccc(Cl)cc3C(F)(F)F)ccc12", "92 % of control"),
    ("COc1ccc(Cl)cc1NC(=O)c1ccc(Cl)cc1Cl", "102 % of control"),
    ("CCOc1c(Br)cc(Br)cc1C=O", "110 % of control"),
    ("c1cc2c3c(c1)-c1nc4ccccc4cc1CN3CCC2", "96 % of control"),
    ("Cc1cc(O)cc(C)c1Cl", "89 % of control"),
    ("O=C(/C=C/c1ccccc1O)c1ccccc1", "102 % of control"),
    ("COc1ccc(/C=C2\\N=C(c3cc(OC)c(OC)c(OC)c3)OC2=O)cc1Br", "102 % of control"),
]

Consider the following items and state reported T/C for each.
1. Cc1cc2c(cc1C)C(=O)OC2=O
2. COc1ccc(OC)c(CCC(O)CCc2cc(OC)ccc2OC)c1
3. O=C(Nc1ccc(Cl)c(Cl)c1)c1ccc2c(c1)C(=O)OC2=O
4. CCCCc1ccc(Sc2cccc3c2C(=O)c2c(Sc4ccc(CCCC)cc4)cccc2C3=O)cc1
5. Cc1[nH]c(=S)[nH]c(=O)c1CCC(=O)O
6. CCCCOc1ccc(OC(=O)Nc2cccc(C(F)(F)F)c2)cc1
7. CC(=O)CSc1sc(C(C)=O)c(N)c1C#N
8. CCOP(=S)(NCCOC)OCC

1: 100 % of control; 2: 94 % of control; 3: 106 % of control; 4: 92 % of control; 5: 98 % of control; 6: 94 % of control; 7: 90 % of control; 8: 95 % of control

* * *

Tested on: L1210 leukemia ip in BDF1 mice, survival T/C
assay_details: NCI In Vivo Anticancer Drug Screen. Data for tumor model L1210 Leukemia (intraperitoneal) in B6D2F1 (BDF1) mice
condition_label: endpoint: mean survival time; dose: 400.0 mg/kg/injection; schedule: Q04DX003 (ip); vehicle: saline with Tween-80; higher = longer survival
Inconclusive results and toxic doses are left out.
observation_type: T/C

Illustrative cases are given below, each with its answer.
# compound, T/C
records = [
    ("O=C1OC(=O)C2C3CC(C(Br)C3Br)C12 (centres undefined)", "101 % of control"),
    ("COc1ccc(C2(C(=O)O)CC2)cc1", "94 % of control"),
    ("CCC(=O)/C(=C\\c1ccccc1Cl)C(C)=O", "93 % of control"),
]

Consider the following items and state reported T/C for each.
1. COc1ccc(C(=O)NC(=S)Nc2ccc(O)cc2)cc1
2. CCCCCC(C)O[Si](C)c1cccc2ccccc12 (centres undefined)
3. N#Cc1nccc2ccc(OCc3ccc(Br)cc3)cc12
4. Cc1cc(O)cc(C)c1Cl
5. CCOC(=O)c1c[nH]n2c(=S)ncnc12

1: 96 % of control; 2: 101 % of control; 3: 89 % of control; 4: 96 % of control; 5: 102 % of control

Consider the following items and state reported T/C for each.
1. NCCNC(=S)S
2. Cc1sc2ccc(Cl)cc2[n+]1CCC(=O)O
3. CCCC1(C)NC(=O)NC1=O (centres undefined)
4. Cc1ccc(S(=O)(=O)N(C)c2ccc(C(=O)O)c3ccccc23)cc1
5. CC1(C(=O)O)CC1(C)C(=O)O (centres undefined)
6. CC(C)Cc1ccc(N=Nc2ccccc2)cc1

1: 91 % of control; 2: 95 % of control; 3: 102 % of control; 4: 100 % of control; 5: 92 % of control; 6: 88 % of control

* * *

Give T/C for every item shown.
System: L1210 leukemia ip in BDF1 mice, survival T/C
assay_details: NCI In Vivo Anticancer Drug Screen. Data for tumor model L1210 Leukemia (intraperitoneal) in B6D2F1 (BDF1) mice
condition_label: endpoint: mean survival time; dose: 100.0 mg/kg/injection; schedule: Q04DX002 (ip); vehicle: saline with Tween-80; higher = longer survival
Inconclusive results and toxic doses are left out.

# compound, assayed_target, T/C
rows = [
    ("CCCC(CN(C)C)C(=O)c1ccccc1 (stereo unspecified)", "L1210 leukemia ip in BDF1 mice, survival T/C", "93 % of control"),
    ("C=C(C(=O)OC)C(C(=O)OC)=C(N1CCCCC1)N1CCCCC1", "L1210 leukemia ip in BDF1 mice, survival T/C", "95 % of control"),
    ("CC(C)(C)Sc1nc2ccccc2s1", "L1210 leukemia ip in BDF1 mice, survival T/C", "96 % of control"),
    ("Cc1ccc2c(c1)C1(C)C=CC(=O)CC1O2 (stereo unspecified)", "L1210 leukemia ip in BDF1 mice, survival T/C", "106 % of control"),
    ("CC1CC(C)(C)N=C(CCCO)O1 (stereo unspecified)", "L1210 leukemia ip in BDF1 mice, survival T/C", "96 % of control"),
]

// next item, T/C requested
// lookup T/C | system=L1210 leukemia ip in BDF1 mice, survival T/C | key= CCC(CCC(C)C1CCC2C3CC=C4CC(OC(=O)Nc5ccccc5)CCC4(C)C3CCC12C)C(C)C (stereo unspecified)
87 % of control

* * *

Test system: L1210 leukemia ip in BDF1 mice, survival T/C
assay_details: NCI In Vivo Anticancer Drug Screen. Data for tumor model L1210 Leukemia (intraperitoneal) in B6D2F1 (BDF1) mice
condition_label: endpoint: mean survival time; dose: 100.0 mg/kg/injection; schedule: Q01DX009 (ip); vehicle: saline with Tween-80; higher = longer survival
Toxic doses and inconclusive results are not listed.
Give T/C for every item shown.

# compound, observation_type, result
data = [
    ("COC(OC)c1[nH]c(=S)[nH]c(=O)c1Cc1cc([N+](=O)[O-])ccc1O", "T/C", "100 % of control"),
]

Consider the following items and state reported T/C for each.
1. Cn1ncc2c(NCc3ccccc3Cl)ncnc21
2. COC1CC2C=CC1C2 (stereo not drawn)
3. Cn1c(=O)cn[nH]c1=O
4. CCCCCCCCCCOc1ccc(/C=N\N=C\c2ccc(OCCCCCCCCCC)cc2)cc1
5. COc1ccccc1CC(C)(C)O
6. CCCN(CCC)CCCCO

1. 124 % of control
2. 89 % of control
3. 108 % of control
4. 88 % of control
5. 95 % of control
6. 95 % of control

Consider the following items and state reported T/C for each.
1. COc1ccc([I+]c2ccccc2)cc1
2. O=C(COc1ccc(Cl)cc1)Nc1cccc([N+](=O)[O-])c1

1. 105 % of control
2. 96 % of control

Consider the following items and state reported T/C for each.
1. O=C(Nc1ccccc1)c1cc(Cl)ccc1O
2. COC(=O)CC(=O)C(C)(C)C
3. O=C1CC(=P(c2ccccc2)(c2ccccc2)c2ccccc2)C(=O)N1c1ccccc1
4. COc1ccc2cc(Br)ccc2c1

95 % of control
101 % of control
100 % of control
107 % of control
